# targetOrTestSystem: rat cerebral cortex muscarinic receptors
# assaySetup: Table I; read-out: QNB Binding IC50
Entries and their IC50
recordedEndpoint: IC50 (µM)

COc1cccc(C#CCO/N=C2\CN3CC[C@@H]2C3)c1 : 5.3
COc1cccc(C#CCO/N=C2/CN3CCC2C3)c1 (centres unmarked) : 14.8

----------
Entries and their solubility
# protocolSummary: Aqueous solubility of crystalline salts of 1a
# Format: physicochemical
# assaySetup: water; room temp.
recordedEndpoint: solubility

COc1cccc(C#CCO/N=C2\CN3CC[C@@H]2C3)c1 [Benzoate] : 6 mg/mL
COc1cccc(C#CCO/N=C2\CN3CC[C@@H]2C3)c1 [Maleate] : 89 mg/mL

----------
# targetOrTestSystem: rat cerebral cortex muscarinic receptors
# protocolSummary: Muscarinic receptor binding, CMD (cis-methyldioxolane) agonist radioligand
# assaySetup: Table I
pIC50: −log10 of the molar value.
recordedEndpoint: pIC50

COc1cccc(C#CCO/N=C2\CN3CC[C@@H]2C3)c1 [Compound 1a] : 7.60
COc1cccc(C#CCO/N=C2/CN3CCC2C3)c1 (centres unmarked) [(1c + 1d)] : 6.82
